- target-or-test-system: FLNA pentapeptide of SEQ ID NO: 1 (Bn-VAKGL) (Homo sapiens, UniProt P21333)
- procedure-text: FITC-NLX-based FLNA screening assay (inhibition of FITC-naloxone binding to Bn-VAKGL on streptavidin plates)
- condition-summary: FLNA-binding compound 0.01 μM; 10 nM FITC-NLX; read-out: Percent Binding Inhibition
observable: inhibition at 0.01 µM

Some compounds with recorded inhibition at 0.01 µM:
CN(C)c1cccc(OCC(O)CN2CCc3ccccc3C2)c1 (centres unmarked) ... 42.9%
COc1ccc(CCC(O)CC2c3c(cc4c(c3OC)OCO4)CCN2C)cc1 (centres unmarked) ... 34.7%

Record CCCCN1CCC2(CC1)OCCN2S(=O)(=O)c1ccc(C(C)=O)cc1 [Compound C0101M] : what is its inhibition at 0.01 µM with FLNA pentapeptide of SEQ ID NO: 1 (Bn-VAKGL) (Homo sapiens, UniProt P21333)?
50.5%

Record `CCCCc1ccc(S(=O)(=O)N2CCC3(CC2)OCCN3S(=O)(=O)c2ccc(CCCC)cc2)cc1` : what is its inhibition at 0.01 µM with FLNA pentapeptide of SEQ ID NO: 1 (Bn-VAKGL) (Homo sapiens, UniProt P21333)?
37.4%

Record `CNc1ccc(S(=O)(=O)N2CCC3(CC2)OCCN3S(=O)(=O)c2ccc(NC)cc2)cc1` : what is its inhibition at 0.01 µM with FLNA pentapeptide of SEQ ID NO: 1 (Bn-VAKGL) (Homo sapiens, UniProt P21333)?
37.9%
